- Test system: HeLa
- MEASUREMENT_PROTOCOL: Antiproliferative activity against human HeLa cells assessed as reduction in cell viability after 24 hrs by MTT assay
- Format: functional, cell-based
A collection of compounds and their measured IC50

{"GIVEN_SMILES": "O=C(/C=C/c1ccc(CNc2nccc(-c3cccnc3)n2)cc1)NO", "IC50": "53.4 µM"}
{"GIVEN_SMILES": "O=C(NO)c1ccc(CNc2nccc(-c3cccnc3)n2)cc1", "IC50": "30.7 µM"}
{"GIVEN_SMILES": "Nc1ccccc1NC(=O)c1ccc(CNc2nccc(-c3cccnc3)n2)cc1", "IC50": "43.8 µM"}

---

- MEASUREMENT_PROTOCOL: Half life in artificial gastric fluid
- Assay type: ADME

{"GIVEN_SMILES": "O=C(NO)c1ccc(CNc2nccc(-c3cccnc3)n2)cc1", "half-life": "> 24 h"}
{"GIVEN_SMILES": "O=C(/C=C/c1ccc(CNc2nccc(-c3cccnc3)n2)cc1)NO", "half-life": "> 24 h"}
{"GIVEN_SMILES": "Nc1ccccc1NC(=O)c1ccc(CNc2nccc(-c3cccnc3)n2)cc1", "half-life": "> 24 h"}

---

- System: HeLa
- MEASUREMENT_PROTOCOL: Induction of apoptosis in human HeLa cells assessed as late apoptotic cells at 1.25 uM after 48 hrs by annexin-V-FITC/propidium iodide staining based flow cytometry (reference value: 9.3%)
- Assay type: functional

{"GIVEN_SMILES": "O=C(CCCCCCC(=O)Nc1ccccc1)NO", "Activity, %": 10.2}
{"GIVEN_SMILES": "O=C(/C=C/c1ccc(CNc2nccc(-c3cccnc3)n2)cc1)NO", "Activity, %": 12.2}
{"GIVEN_SMILES": "Nc1ccccc1NC(=O)c1ccc(CNc2nccc(-c3cccnc3)n2)cc1", "Activity, %": 8.23}
{"GIVEN_SMILES": "O=C(NO)c1ccc(CNc2nccc(-c3cccnc3)n2)cc1", "Activity, %": 14.9}

---

- SYSTEM: Histone deacetylase 2 (Homo sapiens)
- Sequence (Q92769 whole entry): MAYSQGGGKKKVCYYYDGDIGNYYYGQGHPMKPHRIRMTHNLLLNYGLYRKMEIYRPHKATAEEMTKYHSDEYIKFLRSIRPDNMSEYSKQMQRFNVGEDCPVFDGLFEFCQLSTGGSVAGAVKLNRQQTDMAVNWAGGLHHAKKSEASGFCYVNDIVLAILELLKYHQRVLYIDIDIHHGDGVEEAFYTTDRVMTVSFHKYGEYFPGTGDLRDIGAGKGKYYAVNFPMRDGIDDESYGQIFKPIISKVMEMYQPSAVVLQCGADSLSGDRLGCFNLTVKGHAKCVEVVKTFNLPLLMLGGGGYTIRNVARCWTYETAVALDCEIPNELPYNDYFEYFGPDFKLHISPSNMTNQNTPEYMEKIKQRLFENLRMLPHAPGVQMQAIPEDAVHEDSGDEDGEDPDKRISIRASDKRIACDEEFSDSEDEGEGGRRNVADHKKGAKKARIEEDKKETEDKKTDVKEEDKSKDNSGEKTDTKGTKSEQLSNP
- MEASUREMENT_PROTOCOL: Inhibition of HDAC2 (unknown origin) using Boc-Lys(acetyl)-AMC as substrate preincubated for 5 mins followed by substrate addition by fluorescence assay
pIC50: −log10 of the molar value.
ASSAY_METRIC: pIC50

{"GIVEN_SMILES": "O=C(/C=C/c1ccc(CNc2nccc(-c3cccnc3)n2)cc1)NO", "ASSAY_METRIC": "pIC50", "ASSAY_RESULT": 6.73}

---

- MEASUREMENT_PROTOCOL: Half life in mouse microsomes
- Type: ADME, Microsome

{"GIVEN_SMILES": "O=C(NO)c1ccc(CNc2nccc(-c3cccnc3)n2)cc1", "half-life / h": 2.87}
{"GIVEN_SMILES": "O=C(CCCCCCC(=O)Nc1ccccc1)NO", "half-life / h": 1.33}
{"GIVEN_SMILES": "O=C(/C=C/c1ccc(CNc2nccc(-c3cccnc3)n2)cc1)NO", "half-life / h": 2.5}
{"GIVEN_SMILES": "Nc1ccccc1NC(=O)c1ccc(CNc2nccc(-c3cccnc3)n2)cc1", "half-life / h": 2.62}

---

- SYSTEM: UniProt:Q9UBN7
- Sequence (Q9UBN7 whole entry): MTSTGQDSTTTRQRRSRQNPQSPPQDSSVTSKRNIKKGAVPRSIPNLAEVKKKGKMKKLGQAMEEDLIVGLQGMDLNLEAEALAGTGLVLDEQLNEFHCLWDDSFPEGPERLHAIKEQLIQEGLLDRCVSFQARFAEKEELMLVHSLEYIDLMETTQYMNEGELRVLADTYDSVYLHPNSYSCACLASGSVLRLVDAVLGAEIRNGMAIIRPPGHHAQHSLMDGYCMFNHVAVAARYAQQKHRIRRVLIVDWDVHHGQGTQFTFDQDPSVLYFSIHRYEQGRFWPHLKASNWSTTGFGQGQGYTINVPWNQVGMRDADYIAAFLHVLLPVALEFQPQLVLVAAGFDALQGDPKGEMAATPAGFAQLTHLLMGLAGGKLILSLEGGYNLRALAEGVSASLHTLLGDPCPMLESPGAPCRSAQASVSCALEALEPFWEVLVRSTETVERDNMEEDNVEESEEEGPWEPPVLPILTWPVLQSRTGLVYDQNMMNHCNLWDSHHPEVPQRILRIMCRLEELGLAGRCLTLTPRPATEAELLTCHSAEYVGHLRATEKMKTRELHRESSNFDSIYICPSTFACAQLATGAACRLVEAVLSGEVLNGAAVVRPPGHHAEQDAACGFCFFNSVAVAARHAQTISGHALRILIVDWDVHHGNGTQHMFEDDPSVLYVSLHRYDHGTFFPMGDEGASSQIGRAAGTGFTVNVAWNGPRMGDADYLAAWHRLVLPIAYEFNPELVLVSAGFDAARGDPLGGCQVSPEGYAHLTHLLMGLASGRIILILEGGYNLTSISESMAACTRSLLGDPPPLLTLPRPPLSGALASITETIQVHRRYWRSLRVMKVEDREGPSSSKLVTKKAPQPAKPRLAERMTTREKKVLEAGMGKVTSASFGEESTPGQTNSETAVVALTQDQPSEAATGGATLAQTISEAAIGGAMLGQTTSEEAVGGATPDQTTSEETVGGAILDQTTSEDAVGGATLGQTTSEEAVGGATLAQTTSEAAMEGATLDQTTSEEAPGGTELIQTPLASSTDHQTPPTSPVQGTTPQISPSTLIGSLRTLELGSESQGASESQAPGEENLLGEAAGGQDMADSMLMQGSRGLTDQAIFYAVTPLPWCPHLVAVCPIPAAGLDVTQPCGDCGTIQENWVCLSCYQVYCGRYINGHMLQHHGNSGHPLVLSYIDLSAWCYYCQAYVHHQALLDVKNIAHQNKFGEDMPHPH
pIC50: −log10 of the molar value.
ASSAY_METRIC: pIC50

{"GIVEN_SMILES": "O=C(/C=C/c1ccc(CNc2nccc(-c3cccnc3)n2)cc1)NO", "ASSAY_METRIC": "pIC50", "ASSAY_RESULT": 7.16}
{"GIVEN_SMILES": "O=C(NO)c1ccc(CNc2nccc(-c3cccnc3)n2)cc1", "ASSAY_METRIC": "pIC50", "ASSAY_RESULT": 7.11}
